Tested on: SF-539 CNS
Protocol Details: NCI-60 one-dose screen, 48 h
Test Settings: 10 µM unless noted
Compounds without any hit were thinned out: in the full panel of roughly 83,000, 20% have a hit. Activity calls are given as the source filed them. How the source made its calls: active means growth percent below 10; inactive means the rest.
Response enum: 1.0 (active), 0.0 (inactive)

Some solved entries appear below for comparison.
{"Compound": "COc1ccc(/C=C\\c2cc(OC)c(OC)c(OC)c2)c(NS(=O)(=O)c2ccc(Cl)cc2)c1O", "Answer Label": 1.0}
{"Compound": "CCC1CN1CCCCN1CC1CC (stereo not drawn)", "Answer Label": 0.0}
{"Compound": "C/C1=C/C(=O)O[C@@H]2C[C@@H](CC[C@H](C)/C=C\\C=C\\CC1)O[C@@](O)([C@@H]1CSC(=O)N1CO)C2", "Answer Label": 1.0}
{"Compound": "O=C1C(Cl)=C(N2CCOCC2)C(=O)c2ccccc21", "Answer Label": 0.0}
{"Compound": "ClC1=C(Cl)C(Cl)(C2(Cl)C(Cl)=C(Cl)C(Cl)=C2Cl)C(Cl)=C1Cl", "Answer Label": 1.0}
{"Compound": "CC[C@H](C)[C@H](NC(=O)c1nccn1C)C(=O)N(C)[C@H](C[C@@H](OC(C)=O)c1nc(C(=O)N[C@@H](Cc2ccccc2)C[C@H](C)C(=O)OC)cs1)C(C)C", "Answer Label": 1.0}
{"Compound": "N/C(=N\\N=C\\c1ccc(-c2ccccc2)cc1)N[N+](=O)[O-]", "Answer Label": 1.0}
{"Compound": "O=C(Nc1ccncc1F)c1cn(CC2CC2)c2ccccc12", "Answer Label": 0.0}
{"Compound": "CC12CC=CCC1CCC1C2CCC2(C)C(c3ccc(=O)oc3)CCC12O (stereo not drawn)", "Answer Label": 1.0}
{"Compound": "O=C(Nc1ccc([As]=[As]c2ccc(NC(=O)c3ccccc3)cc2)cc1)c1ccccc1 (stereo not drawn)", "Answer Label": 1.0}

Exercise: What was the test verdict on CCOc1ccccc1C(=O)OCC(Cl)(Cl)Cl ?
Key: 0.0

Exercise: What was the test verdict on COC[C@@H]1C[C@@]2(C)[C@@H](CC[C@@H]3[C@@H]2CC[C@@]2(C)[C@H]3CC[C@]2(C)O)CC1=O ?
Key: 0.0

Exercise: What was the test verdict on CC1=C(CCCOC(=O)[C@H](N)CC(C)C)C2=C(C)C3(CC3)[C@@](C)(O)C(=O)C2=C1 ?
Key: 1.0

###

Tested on: HOP-92 NSCLC
Protocol Details: NCI-60 one-dose screen, 48 h
Test Settings: 10 µM unless noted
Compounds without any hit were thinned out: in the full panel of roughly 83,000, 20% have a hit. Calls of active or inactive are those of the source. The calls were made as follows: active = growth percent below 10; inactive = the rest.
Response enum: active, inactive

Some solved entries appear below for comparison.
{"Molecule": "CCOP(=O)(Nc1ccc2c(c1)/C(=N/NC(N)=S)c1ccccc1-2)OCC", "Assayed System": "HOP-92 NSCLC", "Answer Label": "inactive"}
{"Molecule": "O=C1C2CC=CCC2C(=O)N1SC(Cl)(Cl)Cl (stereo not given)", "Assayed System": "HOP-92 NSCLC", "Answer Label": "inactive"}
{"Molecule": "O=NNc1ccccn1", "Assayed System": "HOP-92 NSCLC", "Answer Label": "inactive"}
{"Molecule": "Clc1cccc(N2COOC3(OOC2)C2CC4CC(C2)CC3C4)c1", "Assayed System": "HOP-92 NSCLC", "Answer Label": "active"}

API: the following record is the query input.
Exercise: What was the test verdict on O=[N+]([O-])c1ccc([Se]C2CCCCC2Cl)c([N+](=O)[O-])c1 (stereo not given) ?
Key: inactive
